meta.source: patent US7642287B2

- testName: Pharmacokinetic two-way cross-over study in fasted beagle dogs (plasma pravastatin, LC/MS)
- Assay type: in vivo
- particulars: beagle, dog, plasma, po, 0.95 mg/kg, individual dogs, fasted; mean dose as free acid 0.95 mg/kg (calcium salt softgel), 0.85 mg/kg (PRAVACHOL)
Where a name gives a salt, the structure may show the parent alone.
quantityMeasured: AUC(0-inf) (ng·h/mL)
Numbers only; they are read as ng·h/mL.

Sure, the documented AUC(0-inf) for CC[C@H](C)C(=O)O[C@H]1C[C@H](O)C=C2C=C[C@H](C)[C@H](CC[C@@H](O)C[C@@H](O)CC(=O)O)[C@H]21 [pravastatin calcium salt] is 494

====

- testName: Pharmacokinetic two-way cross-over study in fasted beagle dogs (plasma pravastatin, LC/MS)
- Assay type: in vivo
- particulars: beagle, dog, plasma, po, 0.95 mg/kg, Mean of six fasted beagle dogs; oral; mean dose as free acid 0.95 mg/kg (calcium salt softgel), 0.85 mg/kg (PRAVACHOL); read-out: Tmax
Structures can show the parent of a compound that is named as a salt.
quantityMeasured: Tmax
Your answer should be a number followed by the unit of measure.

Sure, the documented Tmax for CC[C@H](C)C(=O)O[C@H]1C[C@H](O)C=C2C=C[C@H](C)[C@H](CC[C@@H](O)C[C@@H](O)CC(=O)O)[C@H]21 [pravastatin calcium salt] is 42.6 min

====

- testName: Pharmacokinetic two-way cross-over study in fasted beagle dogs (plasma pravastatin, LC/MS)
- Format: in vivo
- particulars: beagle, dog, plasma, po, 0.95 mg/kg, Mean of six fasted beagle dogs; mean dose as free acid 0.95 mg/kg (calcium salt softgel), 0.85 mg/kg (PRAVACHOL)
Counter-ions that a name gives are not always drawn.
quantityMeasured: AUC(0-inf) (µg·h/mL)
Numbers only; they are read as µg·h/mL.

Sure, the documented AUC(0-inf) for CC[C@H](C)C(=O)O[C@H]1C[C@H](O)C=C2C=C[C@H](C)[C@H](CC[C@@H](O)C[C@@H](O)CC(=O)O)[C@H]21 [pravastatin calcium salt] is 0.441

====

- testName: Pharmacokinetic two-way cross-over study in fasted beagle dogs (plasma pravastatin, LC/MS)
- Format: in vivo
- particulars: beagle, dog, plasma, po, 0.95 mg/kg, Mean of six fasted beagle dogs; mean dose as free acid 0.95 mg/kg (calcium salt softgel), 0.85 mg/kg (PRAVACHOL)
Structures can show the parent of a compound that is named as a salt.
quantityMeasured: half-life (h)
Numbers only; they are read as h.

Sure, the documented half-life for CC[C@H](C)C(=O)O[C@H]1C[C@H](O)C=C2C=C[C@H](C)[C@H](CC[C@@H](O)C[C@@H](O)CC(=O)O)[C@H]21 [pravastatin calcium salt] is 2.35

====

- testName: Pharmacokinetic two-way cross-over study in fasted beagle dogs (plasma pravastatin, LC/MS)
- Type: in vivo
- particulars: beagle, dog, plasma, po, 0.95 mg/kg, Mean of six dogs; relative to PRAVACHOL AUCinf, dose-normalized
Where a name gives a salt, the structure may show the parent alone.
quantityMeasured: bioavailability (%)
Numbers only; they are read as %.

Sure, the documented bioavailability for CC[C@H](C)C(=O)O[C@H]1C[C@H](O)C=C2C=C[C@H](C)[C@H](CC[C@@H](O)C[C@@H](O)CC(=O)O)[C@H]21 [pravastatin calcium salt] is 121

====

- testName: Pharmacokinetic two-way cross-over study in fasted beagle dogs (plasma pravastatin, LC/MS)
- Format: in vivo
- particulars: beagle, dog, plasma, po, 0.95 mg/kg, individual dogs, fasted; mean dose as free acid 0.95 mg/kg (calcium salt in Ropufa 75 omega-3 ethyl esters softgel), 0.85 mg/kg (PRAVACHOL)
Counter-ions that a name gives are not always drawn.
quantityMeasured: AUC(0-t)
Your answer should be a number followed by the unit of measure.

Sure, the documented AUC(0-t) for CC[C@H](C)C(=O)O[C@H]1C[C@H](O)C=C2C=C[C@H](C)[C@H](CC[C@@H](O)C[C@@H](O)CC(=O)O)[C@H]21 [pravastatin calcium salt] is 488 ng·h/mL
